These measurements were taken from ChEMBL document CHEMBL1151009.

Biological target: UniProt P24557
Sequence (P24557 whole entry): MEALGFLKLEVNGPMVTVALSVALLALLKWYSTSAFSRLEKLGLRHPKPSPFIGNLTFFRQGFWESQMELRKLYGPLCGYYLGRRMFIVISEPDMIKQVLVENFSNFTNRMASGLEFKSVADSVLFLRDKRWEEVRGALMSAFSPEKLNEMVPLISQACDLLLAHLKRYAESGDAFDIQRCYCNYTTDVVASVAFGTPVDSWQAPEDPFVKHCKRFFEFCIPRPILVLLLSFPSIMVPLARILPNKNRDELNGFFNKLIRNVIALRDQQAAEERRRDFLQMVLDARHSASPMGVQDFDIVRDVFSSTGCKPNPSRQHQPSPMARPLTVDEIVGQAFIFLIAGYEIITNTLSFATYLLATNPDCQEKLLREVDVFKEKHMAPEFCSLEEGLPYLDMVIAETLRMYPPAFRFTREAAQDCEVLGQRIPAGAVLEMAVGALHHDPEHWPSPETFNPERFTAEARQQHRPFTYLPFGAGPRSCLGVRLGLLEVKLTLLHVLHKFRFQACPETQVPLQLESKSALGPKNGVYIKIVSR
Experiment: In vitro TXA2 synthase antagonism through inhibition of collagen induced thromboxane-A2 production in human citreated whole blood
MEASURE: IC50 (nM)

CCCCc1ccncc1-c1ccc(CO[C@@H]2CC[C@H](N3CCCCCC3)[C@H]2OC/C=C\CCC(=O)O)cc1 :: 100

[P] O=C(O)CCCCO/N=C(/c1cccnc1)c1cccc(C(F)(F)F)c1
[Q] O=C(O)CC/C=C\CO[C@H]1[C@H](OCc2ccc(-c3ccncc3)cc2)CC[C@@H]1N1CCCCCC1
Task: Between the two listed entries P and Q , which has its IC50 at the higher number? Answer = label.
Result: Q

---

Biological target: UniProt P34978
Sequence (P34978 whole entry): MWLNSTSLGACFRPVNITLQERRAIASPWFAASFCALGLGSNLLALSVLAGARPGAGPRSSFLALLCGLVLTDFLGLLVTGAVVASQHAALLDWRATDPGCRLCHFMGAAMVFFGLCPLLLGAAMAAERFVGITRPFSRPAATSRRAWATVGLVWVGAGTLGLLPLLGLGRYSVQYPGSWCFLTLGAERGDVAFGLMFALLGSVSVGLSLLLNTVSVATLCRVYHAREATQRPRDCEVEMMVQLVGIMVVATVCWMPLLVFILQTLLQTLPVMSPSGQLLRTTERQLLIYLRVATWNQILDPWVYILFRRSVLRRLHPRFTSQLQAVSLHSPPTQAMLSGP
Assay: In vitro thromboxane A2 receptor antagonism through inhibition of U-46619-induced contraction of rat isolated thoracic aortic strip
Assay type: functional
Details: read-out: pA2 (converted)
MEASURE: Kb (nM)

Below, each entry is followed by its recorded Kb result.
O=C(O)CC/C=C\CO[C@H]1[C@H](OCc2ccc(-c3cnccc3CCO)cc2)CC[C@@H]1N1CCCCCC1 :: 3.16
O=C(O)CC/C=C\CO[C@H]1[C@H](OCc2ccc(-c3ccncc3)cc2)CC[C@@H]1N1CCCCCC1 :: 79.4
O=C(O)CC/C=C\CO[C@H]1[C@H](OCc2ccc(-c3cnccc3CO)cc2)CC[C@@H]1N1CCCCCC1 :: 12.6
CCCCc1ccncc1-c1ccc(CO[C@@H]2CC[C@H](N3CCCCCC3)[C@H]2OC/C=C\CCC(=O)O)cc1 :: 10
O=C(O)CC/C=C\CO[C@H]1[C@H](OCc2ccc(-c3cccnc3CO)cc2)CC[C@@H]1N1CCCCCC1 :: 3.16

[a] O=C(O)CCCCO/N=C(/c1cccnc1)c1cccc(C(F)(F)F)c1 [RIDOGREL]
[b] O=C(O)CCCC/C=C(\c1ccccc1)c1cccnc1 [(E)-ISBOGREL]
[c] Cc1cnccc1-c1ccc(CO[C@@H]2CC[C@H](N3CCCCCC3)[C@H]2OC/C=C\CCC(=O)O)cc1
[d] CCc1ccncc1-c1ccc(CO[C@@H]2CC[C@H](N3CCCCCC3)[C@H]2OC/C=C\CCC(=O)O)cc1
Task: Please list these in order of increasing Kb. Thank you! To answer, arrange all of the labels according to the requested order.
Result: d, c, a, b

[I] O=C(O)CC/C=C\CO[C@H]1[C@H](OCc2ccc(-c3cncc(CO)c3)cc2)CC[C@@H]1N1CCCCCC1
[II] CCc1cnccc1-c1ccc(CO[C@@H]2CC[C@H](N3CCCCCC3)[C@H]2OC/C=C\CCC(=O)O)cc1
Task: Between the two listed entries I and II , which has its Kb at the higher number? Answer = label.
Result: I
(I: 25.1 nM, II: 15.8 nM)
